Tested on: MDCK cells
test_method_notes: MTT cytotoxicity assay, MDCK (non-tumor)
Format: cell-based, canine
conditions: MTT, 72 h, mean ± SD (n = 3), non-tumor cells
measured_attribute: IC50 (µM)
Answer in µM, number only, no unit symbol.

[ask] # IC50 lookup, item COc1ccccc1/C=C/C(=O)OC1CCC2(C)C(CCC3(C)C2C(=O)C=C2C4CC(C)(C(=O)O)CCC4(C)CCC23C)C1(C)C (centres unmarked)
[reply] 22.9

[ask] Ok, now CC1(C)[C@@H](OC(=O)/C=C/c2ccccc2)CC[C@]2(C)[C@H]3C(=O)C=C4[C@@H]5C[C@@](C)(C(=O)O)CC[C@]5(C)CC[C@@]4(C)[C@]3(C)CC[C@@H]12
[reply] 22.6

[ask] Ok, now COc1ccc(/C=C/C(=O)OC2CCC3(C)C(CCC4(C)C3C(=O)C=C3C5CC(C)(C(=O)O)CCC5(C)CCC34C)C2(C)C)c(OC)c1OC (centres unmarked)
[reply] 31.8

[ask] Ok, now COc1cccc(CCC(=O)OC2CCC3(C)C(CCC4(C)C3C(=O)C=C3C5CC(C)(C(=O)O)CCC5(C)CCC34C)C2(C)C)c1OC (centres unmarked)
[reply] 41.3

[ask] Ok, now COc1cccc(/C=C/C(=O)OC2CCC3(C)C(CCC4(C)C3C(=O)C=C3C5CC(C)(C(=O)O)CCC5(C)CCC34C)C2(C)C)c1 (centres unmarked)
[reply] 22.2

[ask] Ok, now COc1cccc(/C=C/C(=O)OC2CCC3(C)C(CCC4(C)C3C(=O)C=C3C5CC(C)(C(=O)O)CCC5(C)CCC34C)C2(C)C)c1OC (centres unmarked)
[reply] 33.7

[ask] Ok, now COc1cc(/C=C/C(=O)O[C@H]2CC[C@]3(C)[C@H]4C(=O)C=C5[C@@H]6C[C@@](C)(C(=O)O)CC[C@]6(C)CC[C@@]5(C)[C@]4(C)CC[C@H]3C2(C)C)cc(OC)c1OC
[reply] 27.7

[ask] Ok, now CC1(C(=O)O)CCC2(C)CCC3(C)C(=CC(=O)C4C5(C)CCC(OC(=O)CCc6ccccc6)C(C)(C)C5CCC43C)C2C1 (centres unmarked)
[reply] 33.3

[ask] Ok, now N.N.[Cl][Pt][Cl] [DPP, cisplatin, reference compound]
[reply] 9.97

[ask] Ok, now COc1ccc(C=CC(=O)OC2CCC3(C)C(CCC4(C)C3C(=O)C=C3C5CC(C)(C(=O)O)CCC5(C)CCC34C)C2(C)C)cc1 (centres unmarked)
[reply] 21.7

[ask] Ok, now Cc1ccc(/C=C/C(=O)OC2CCC3(C)C(CCC4(C)C3C(=O)C=C3C5CC(C)(C(=O)O)CCC5(C)CCC34C)C2(C)C)cc1 (centres unmarked)
[reply] 38

====

System: H9C2 cells
test_method_notes: MTT cytotoxicity assay, H9C2 (non-tumor)
Format: cell-based, rat
conditions: MTT, 72 h, mean ± SD (n = 3), non-tumor cells
measured_attribute: IC50

[ask] # IC50 lookup, item COc1cc(/C=C/C(=O)O[C@H]2CC[C@]3(C)[C@H]4C(=O)C=C5[C@@H]6C[C@@](C)(C(=O)O)CC[C@]6(C)CC[C@@]5(C)[C@]4(C)CC[C@H]3C2(C)C)cc(OC)c1OC
[reply] 47.4 µM

[ask] Ok, now N.N.[Cl][Pt][Cl] [DPP, cisplatin, reference compound]
[reply] 5.31 µM

[ask] Ok, now CC1(C(=O)O)CCC2(C)CCC3(C)C(=CC(=O)C4C5(C)CCC(OC(=O)CCc6ccccc6)C(C)(C)C5CCC43C)C2C1 (centres unmarked)
[reply] > 50 µM

[ask] Ok, now Cc1ccc(/C=C/C(=O)OC2CCC3(C)C(CCC4(C)C3C(=O)C=C3C5CC(C)(C(=O)O)CCC5(C)CCC34C)C2(C)C)cc1 (centres unmarked)
[reply] > 50 µM

[ask] Ok, now COc1ccc(C=CC(=O)OC2CCC3(C)C(CCC4(C)C3C(=O)C=C3C5CC(C)(C(=O)O)CCC5(C)CCC34C)C2(C)C)cc1 (centres unmarked)
[reply] 36.1 µM

[ask] Ok, now COc1ccccc1/C=C/C(=O)OC1CCC2(C)C(CCC3(C)C2C(=O)C=C2C4CC(C)(C(=O)O)CCC4(C)CCC23C)C1(C)C (centres unmarked)
[reply] > 50 µM

[ask] Ok, now CC1(C)[C@@H](OC(=O)/C=C/c2ccccc2)CC[C@]2(C)[C@H]3C(=O)C=C4[C@@H]5C[C@@](C)(C(=O)O)CC[C@]5(C)CC[C@@]4(C)[C@]3(C)CC[C@@H]12
[reply] 46.1 µM

[ask] Ok, now COc1ccc(CCC(=O)O[C@H]2CC[C@]3(C)[C@H]4C(=O)C=C5[C@@H]6C[C@@](C)(C(=O)O)CC[C@]6(C)CC[C@@]5(C)[C@]4(C)CC[C@H]3C2(C)C)c(OC)c1OC
[reply] > 50 µM

[ask] Ok, now COc1cccc(CCC(=O)OC2CCC3(C)C(CCC4(C)C3C(=O)C=C3C5CC(C)(C(=O)O)CCC5(C)CCC34C)C2(C)C)c1OC (centres unmarked)
[reply] 45.8 µM

[ask] Ok, now COc1cccc(/C=C/C(=O)OC2CCC3(C)C(CCC4(C)C3C(=O)C=C3C5CC(C)(C(=O)O)CCC5(C)CCC34C)C2(C)C)c1OC (centres unmarked)
[reply] > 50 µM

[ask] Ok, now COc1ccc(/C=C/C(=O)OC2CCC3(C)C(CCC4(C)C3C(=O)C=C3C5CC(C)(C(=O)O)CCC5(C)CCC34C)C2(C)C)c(OC)c1OC (centres unmarked)
[reply] > 50 µM

[ask] Ok, now COc1cc(CCC(=O)OC2CCC3(C)C(CCC4(C)C3C(=O)C=C3C5CC(C)(C(=O)O)CCC5(C)CCC34C)C2(C)C)cc(OC)c1OC (centres unmarked)
[reply] > 50 µM

[ask] Ok, now COc1ccc(OC)c(/C=C/C(=O)OC2CCC3(C)C(CCC4(C)C3C(=O)C=C3C5CC(C)(C(=O)O)CCC5(C)CCC34C)C2(C)C)c1 (centres unmarked)
[reply] > 50 µM

[ask] Ok, now COc1cccc(/C=C/C(=O)OC2CCC3(C)C(CCC4(C)C3C(=O)C=C3C5CC(C)(C(=O)O)CCC5(C)CCC34C)C2(C)C)c1 (centres unmarked)
[reply] > 50 µM

====

Test system: HY926 cells
test_method_notes: MTT cytotoxicity assay, HY926 (non-tumor)
Type: cell-based
conditions: MTT, 72 h, mean ± SD (n = 3), non-tumor cells
Description: HepG2 (human hepatocellular carcinoma), Hela (human cervical cancer), HT-29 (human colon carcinoma), MDCK (Madin–Darby canine kidney), H9C2 (rat myocardial cells) and HY926 were purchased from the Chinese Academy of Medical Sciences and Peking Union Medical College. […] The cytotoxicity of these compounds was evaluated on three human cancer cell lines (HepG2, HT-29, Hela) and three non-tumor cells lines (MDCK, HY926, H9C2) and MTT assay was performed to detect the cell proliferation. […]
Assignment: determine reported IC50 for the given molecules.
Answer in µM, number only, no unit symbol.

[ask] # IC50 lookup, item COc1ccc(OC)c(/C=C/C(=O)OC2CCC3(C)C(CCC4(C)C3C(=O)C=C3C5CC(C)(C(=O)O)CCC5(C)CCC34C)C2(C)C)c1 (stereo not drawn)
[reply] 45.1

[ask] Ok, now CC1(C)[C@@H](OC(=O)/C=C/c2ccccc2)CC[C@]2(C)[C@H]3C(=O)C=C4[C@@H]5C[C@@](C)(C(=O)O)CC[C@]5(C)CC[C@@]4(C)[C@]3(C)CC[C@@H]12
[reply] 28.9

[ask] Ok, now COc1ccc(/C=C/C(=O)OC2CCC3(C)C(CCC4(C)C3C(=O)C=C3C5CC(C)(C(=O)O)CCC5(C)CCC34C)C2(C)C)c(OC)c1OC (stereo not drawn)
[reply] 27.7

[ask] Ok, now N.N.[Cl][Pt][Cl] [DPP, cisplatin, reference compound]
[reply] 5.12

[ask] Ok, now COc1cccc(/C=C/C(=O)OC2CCC3(C)C(CCC4(C)C3C(=O)C=C3C5CC(C)(C(=O)O)CCC5(C)CCC34C)C2(C)C)c1OC (stereo not drawn)
[reply] 25

[ask] Ok, now COc1ccc(CCC(=O)O[C@H]2CC[C@]3(C)[C@H]4C(=O)C=C5[C@@H]6C[C@@](C)(C(=O)O)CC[C@]6(C)CC[C@@]5(C)[C@]4(C)CC[C@H]3C2(C)C)c(OC)c1OC
[reply] 38.5

[ask] Ok, now Cc1ccc(/C=C/C(=O)OC2CCC3(C)C(CCC4(C)C3C(=O)C=C3C5CC(C)(C(=O)O)CCC5(C)CCC34C)C2(C)C)cc1 (stereo not drawn)
[reply] 27.6

[ask] Ok, now CC1(C(=O)O)CCC2(C)CCC3(C)C(=CC(=O)C4C5(C)CCC(OC(=O)CCc6ccccc6)C(C)(C)C5CCC43C)C2C1 (stereo not drawn)
[reply] 33.6

[ask] Ok, now COc1cc(/C=C/C(=O)O[C@H]2CC[C@]3(C)[C@H]4C(=O)C=C5[C@@H]6C[C@@](C)(C(=O)O)CC[C@]6(C)CC[C@@]5(C)[C@]4(C)CC[C@H]3C2(C)C)cc(OC)c1OC
[reply] 30.8
